From: patent US5821046A

test system: HIV-1 tat protein; assay: competition filter binding assay, mutant TAR transcripts against labelled HIV-1 TAR RNA (FIG. 7, Table 1); details: 20 nM TAR RNA, 40 nM tat protein; listed as SEQ ID NO: 8; read-out: D1/2 (concentration of competitor RNA that reduces binding of HIV-1 tat to HIV-1 TAR RNA to 50%)
Quantity measured: pIC50
Bear in mind: pIC50 is minus log10 of a mol/L concentration; give just that figure.

stdin: Which pIC50 is reported for this substance? delta U (bulge): TAR RNA in which residues 23-25 are deleted (GGGUCUCUCUGGUUAGACCAGAGAGCCUGGGAGCUCUCUGGCUAACUAGGGAACCC; RNA, backbone not given here)
stdout: 6.54
